# Test system: HL60 (acute myeloid leukemia, CD13 positive) cells
# procedure-summary: Inhibition of tritiated thymidine incorporation, 5 day, HL60
# Type: cell-based
# condition-context: HL60, 5 days; read-out: HL60 IC50 (uM), 5 day thymidine incorporation
experimental-endpoint: IC50

Item O=C(O)CNC(=O)C(CS)Cc1ccccc1 (racemic) [DL-Thiorphan, reference compound] has what recorded IC50? > 395 µM

* * *

# Test system: SK-LC-16
# procedure-summary: XTT cytotoxicity assay, 5-day culture, SK-LC-16
# Assay type: cell-based
# condition-context: Homo sapiens, 120 h, SK-LC-16, NSCLC-SSC, 5 days, read-out: IC50 (μM ± SEM)
experimental-endpoint: IC50 (µM)
Numbers only, in µM.

Observed IC50 on SK-LC-16 for CCCCC[C@H](CC(=O)NO)C(=O)N[C@H](C(=O)N1CCC[C@H]1CO)C(C)C [Actinonin, (S,S,R)-(−)-Actinonin] , please. 12

* * *

# System: DU-145
# procedure-summary: XTT cytotoxicity assay, 5-day culture, DU-145
# Format: cell-based
# condition-context: Homo sapiens, 120 h, DU-145, Prostate Ca, 5 days, read-out: IC50 (μM ± SEM)
experimental-endpoint: IC50

Item CCCCC[C@H](CC(=O)NO)C(=O)N[C@H](C(=O)N1CCC[C@H]1CO)C(C)C [Actinonin, (S,S,R)-(−)-Actinonin] has what recorded IC50? 17 µM
